Values from PubChem BioAssay AID1159580

- MEASUREMENT PROTOCOL: chemical genetic growth profiling, strain panel (AID 1159580);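 note: tested at 20 µM; growth read once vehicle control cultures reached saturation at 30 °C; 1 = growth at the plate median or of vehicle wells; lower values mean less growth of the strain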
- RECORDED CONDITIONS: S. cerevisiae deletion strains, growth OD, locus YFR010W, strain ubp6, stronger effect = lower value
The whole screen tested about 5,500 compounds, of which about 2,000 (36%) were called active. Roughly 18% stayed inconclusive and do not appear here. This is one part of the list.
Each entry below carries its recorded normalized growth.
ASSAY ENDPOINT: normalized growth

COc1cc([C@@H]2c3cc4c(cc3C(OC3O[C@@H]5COC(C)O[C@H]5[C@H](O)[C@H]3O)C3COC(=O)[C@@H]32)OCO4)cc(OC)c1O (some centres undefined)	1.02 (inactive)
CCN(CC)C(=O)N1CCN(C)CC1	0.959 (inactive)
C=C1C2CC[C@@]3(C)[C@H](c4ccoc4)OC(=O)C[C@]13O[C@H]1CC(=O)C(C)(C)[C@H](C(OC(C)=O)C(=O)OC)[C@@]21C (some centres undefined)	1.04 (inactive)
O=C(NC(=O)c1ccccc1Cl)Nc1ccc(OC(F)(F)F)cc1	1.03 (inactive)
